- experimental.system: N-type calcium channel (Homo sapiens)
- Sequence (Q00975 whole entry): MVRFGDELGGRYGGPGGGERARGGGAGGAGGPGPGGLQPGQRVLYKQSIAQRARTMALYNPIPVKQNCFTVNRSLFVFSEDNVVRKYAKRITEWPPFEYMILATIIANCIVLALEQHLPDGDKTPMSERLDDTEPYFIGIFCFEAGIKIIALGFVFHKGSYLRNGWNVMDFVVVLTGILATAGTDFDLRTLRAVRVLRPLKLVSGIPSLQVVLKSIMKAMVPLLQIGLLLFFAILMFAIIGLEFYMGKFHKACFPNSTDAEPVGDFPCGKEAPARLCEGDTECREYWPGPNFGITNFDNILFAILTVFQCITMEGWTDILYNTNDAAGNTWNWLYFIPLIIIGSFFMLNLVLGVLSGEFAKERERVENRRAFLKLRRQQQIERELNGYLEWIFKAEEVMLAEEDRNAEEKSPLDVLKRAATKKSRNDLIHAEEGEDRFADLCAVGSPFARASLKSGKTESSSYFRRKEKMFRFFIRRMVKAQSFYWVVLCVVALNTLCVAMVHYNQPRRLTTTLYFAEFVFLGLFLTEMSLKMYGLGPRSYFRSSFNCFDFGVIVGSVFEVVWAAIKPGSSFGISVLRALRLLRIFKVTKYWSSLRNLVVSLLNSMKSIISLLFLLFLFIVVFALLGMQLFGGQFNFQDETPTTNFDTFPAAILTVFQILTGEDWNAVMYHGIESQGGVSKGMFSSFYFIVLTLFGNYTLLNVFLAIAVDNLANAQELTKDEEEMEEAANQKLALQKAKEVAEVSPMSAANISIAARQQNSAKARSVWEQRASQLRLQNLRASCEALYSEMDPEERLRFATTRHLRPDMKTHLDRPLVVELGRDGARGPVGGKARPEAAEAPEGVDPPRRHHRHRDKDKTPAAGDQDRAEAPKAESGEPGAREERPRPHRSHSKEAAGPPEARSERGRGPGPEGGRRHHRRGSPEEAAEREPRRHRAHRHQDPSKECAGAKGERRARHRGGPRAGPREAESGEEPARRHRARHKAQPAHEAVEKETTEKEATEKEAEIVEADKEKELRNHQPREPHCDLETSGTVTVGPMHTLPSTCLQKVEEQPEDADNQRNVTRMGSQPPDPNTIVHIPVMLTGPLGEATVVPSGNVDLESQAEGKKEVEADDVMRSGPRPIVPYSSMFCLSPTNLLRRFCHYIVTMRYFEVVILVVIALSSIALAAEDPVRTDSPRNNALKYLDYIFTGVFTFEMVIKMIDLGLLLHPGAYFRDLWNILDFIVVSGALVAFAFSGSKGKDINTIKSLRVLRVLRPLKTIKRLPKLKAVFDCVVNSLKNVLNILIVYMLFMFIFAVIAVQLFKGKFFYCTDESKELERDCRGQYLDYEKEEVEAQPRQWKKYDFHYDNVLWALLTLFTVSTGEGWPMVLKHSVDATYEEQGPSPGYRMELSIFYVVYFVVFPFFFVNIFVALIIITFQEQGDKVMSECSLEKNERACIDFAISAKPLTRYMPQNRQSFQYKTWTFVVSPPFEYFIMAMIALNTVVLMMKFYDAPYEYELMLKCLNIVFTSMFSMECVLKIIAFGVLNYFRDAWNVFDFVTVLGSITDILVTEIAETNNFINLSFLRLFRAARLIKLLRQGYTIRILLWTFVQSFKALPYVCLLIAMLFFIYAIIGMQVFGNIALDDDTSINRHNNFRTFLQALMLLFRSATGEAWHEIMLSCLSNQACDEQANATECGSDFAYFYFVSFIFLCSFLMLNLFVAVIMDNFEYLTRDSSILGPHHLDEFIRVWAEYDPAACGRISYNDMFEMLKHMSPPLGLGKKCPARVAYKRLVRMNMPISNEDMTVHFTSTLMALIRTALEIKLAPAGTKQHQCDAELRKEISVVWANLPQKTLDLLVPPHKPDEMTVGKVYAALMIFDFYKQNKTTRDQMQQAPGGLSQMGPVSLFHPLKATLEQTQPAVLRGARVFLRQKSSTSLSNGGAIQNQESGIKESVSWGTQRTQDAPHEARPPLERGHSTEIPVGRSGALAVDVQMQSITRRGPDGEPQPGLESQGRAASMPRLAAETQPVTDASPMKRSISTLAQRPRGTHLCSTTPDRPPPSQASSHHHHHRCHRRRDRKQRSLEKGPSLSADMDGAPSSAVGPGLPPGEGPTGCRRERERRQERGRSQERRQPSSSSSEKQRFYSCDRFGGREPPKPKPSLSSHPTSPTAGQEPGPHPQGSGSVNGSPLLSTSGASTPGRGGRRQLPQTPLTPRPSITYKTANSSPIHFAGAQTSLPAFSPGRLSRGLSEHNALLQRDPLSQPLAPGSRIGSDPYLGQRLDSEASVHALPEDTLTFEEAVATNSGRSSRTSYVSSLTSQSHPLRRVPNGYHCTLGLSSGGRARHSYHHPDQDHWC
- Sequence (P54284 whole entry partner): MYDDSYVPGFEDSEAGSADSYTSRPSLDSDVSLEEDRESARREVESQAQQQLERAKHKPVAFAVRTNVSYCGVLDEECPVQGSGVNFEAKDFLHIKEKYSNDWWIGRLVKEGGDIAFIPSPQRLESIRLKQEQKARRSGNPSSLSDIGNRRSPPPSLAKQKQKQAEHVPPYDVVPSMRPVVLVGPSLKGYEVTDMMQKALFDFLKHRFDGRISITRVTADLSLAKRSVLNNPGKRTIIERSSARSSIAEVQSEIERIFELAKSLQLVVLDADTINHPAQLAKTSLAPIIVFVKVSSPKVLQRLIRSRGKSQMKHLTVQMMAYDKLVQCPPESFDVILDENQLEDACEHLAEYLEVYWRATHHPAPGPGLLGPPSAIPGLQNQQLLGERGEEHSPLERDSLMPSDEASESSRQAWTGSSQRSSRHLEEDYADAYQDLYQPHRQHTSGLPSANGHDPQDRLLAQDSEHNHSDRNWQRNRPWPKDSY
- Sequence (P54289 25-946 partner limits assumed): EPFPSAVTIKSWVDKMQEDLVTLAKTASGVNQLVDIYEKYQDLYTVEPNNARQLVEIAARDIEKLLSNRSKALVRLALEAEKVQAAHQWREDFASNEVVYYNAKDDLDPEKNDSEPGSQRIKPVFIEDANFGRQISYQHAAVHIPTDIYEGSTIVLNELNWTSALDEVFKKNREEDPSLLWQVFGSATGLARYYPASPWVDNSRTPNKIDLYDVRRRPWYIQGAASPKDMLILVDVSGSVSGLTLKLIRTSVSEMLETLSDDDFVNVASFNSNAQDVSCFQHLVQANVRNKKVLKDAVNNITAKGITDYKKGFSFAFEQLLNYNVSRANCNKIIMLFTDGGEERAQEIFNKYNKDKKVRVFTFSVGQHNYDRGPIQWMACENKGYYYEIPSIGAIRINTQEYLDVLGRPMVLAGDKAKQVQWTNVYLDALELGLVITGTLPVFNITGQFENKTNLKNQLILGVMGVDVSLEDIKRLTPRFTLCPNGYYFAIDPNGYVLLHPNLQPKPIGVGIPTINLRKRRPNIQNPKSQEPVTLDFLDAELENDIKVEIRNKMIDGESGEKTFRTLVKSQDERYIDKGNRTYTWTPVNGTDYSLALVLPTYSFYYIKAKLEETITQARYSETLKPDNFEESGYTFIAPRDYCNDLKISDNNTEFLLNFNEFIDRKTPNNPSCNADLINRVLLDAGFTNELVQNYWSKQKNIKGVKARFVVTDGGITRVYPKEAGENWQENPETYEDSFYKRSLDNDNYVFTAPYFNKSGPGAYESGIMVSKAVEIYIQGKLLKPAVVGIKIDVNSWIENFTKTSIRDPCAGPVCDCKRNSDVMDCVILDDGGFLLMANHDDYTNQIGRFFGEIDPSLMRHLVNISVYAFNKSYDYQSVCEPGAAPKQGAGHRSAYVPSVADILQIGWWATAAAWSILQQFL
- Sequence (P54289 947-1103 partner limits assumed): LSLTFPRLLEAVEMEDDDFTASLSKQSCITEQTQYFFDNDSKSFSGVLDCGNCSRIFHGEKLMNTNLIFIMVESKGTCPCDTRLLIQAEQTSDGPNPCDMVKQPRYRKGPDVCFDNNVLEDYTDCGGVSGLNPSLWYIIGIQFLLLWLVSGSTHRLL
- assay.protocol: Automated Electrophysiology Assay (QPatch-HT whole-cell patch clamp; low- and high-frequency stimulation)
- Format: cell-based
- condition.summary: low frequency; 1 μM; read-out: QPatch at Low Frequency % Inhibition
endpoint: inhibition at 1 µM (%)

Consider the reported inhibition at 1 µM for these molecules:
[
  {
    "molecule": "COc1ccccc1-n1nc2c(c1-c1ccc(Cl)cc1)CC(CNS(C)(=O)=O)C2 (centres unmarked)",
    "experimental.system": "N-type calcium channel (Homo sapiens)",
    "unit.text": "%",
    "inhibition at 1 µM": 62
  },
  {
    "molecule": "COc1ccccc1-n1nc2c(c1-c1ccc(OC(C)C)nc1)C[C@@H](N(C)S(=O)(=O)N(C)C)C2",
    "experimental.system": "N-type calcium channel (Homo sapiens)",
    "unit.text": "%",
    "inhibition at 1 µM": 75
  },
  {
    "molecule": "COc1ccc(-c2c3c(nn2-c2ccccc2OC)C[C@H](N(C)S(=O)(=O)N(C)C)C3)cn1",
    "experimental.system": "N-type calcium channel (Homo sapiens)",
    "unit.text": "%",
    "inhibition at 1 µM": 32
  },
  {
    "molecule": "COc1ccccc1-n1nc2c(c1-c1ccc(C#N)cc1)C[C@H](n1cc(C3CCCC3)nn1)C2",
    "experimental.system": "N-type calcium channel (Homo sapiens)",
    "unit.text": "%",
    "inhibition at 1 µM": 68
  },
  {
    "molecule": "COc1ccccc1-n1nc2c(c1-c1ccc(Cl)cc1)C[C@H](OC(=O)C1CCC1)C2",
    "experimental.system": "N-type calcium channel (Homo sapiens)",
    "unit.text": "%",
    "inhibition at 1 µM": 6
  }
]

I: COc1ccccc1-n1nc2c(c1-c1ccc(Cl)cc1)CC(CCNS(C)(=O)=O)C2 (centres unmarked)
II: COc1ccccc1-n1nc2c(c1-c1ccc(Cl)cc1)CC(CCNC(C)=O)C2 (centres unmarked)
III: COc1ccccc1-n1nc2c(c1-c1ccc(Cl)cc1)CC1(C2)O[C@H](C)C[C@@H](C)O1 (some centres unmarked)
q: Arrange these molecules by their inhibition at 1 µM, starting with the largest number. As an answer, provide the labels arranged in the order called for.
a: III, I, II
(III: 72%, I: 29%, II: 15%)

P: COc1ccccc1-n1nc2c(c1-c1ccc(C#N)cc1)CC1(C2)OCC(C)(C)CO1
Q: CCOc1ccccc1-n1nc2c(c1-c1ccc(Cl)cc1)CC(n1ccnn1)C2 (centres unmarked)
q: Sort P and Q by inhibition at 1 µM descending and give the first. // output: label of the selected item
a: Q

I: COc1ccccc1-n1nc2c(c1-c1ccc(C#N)cc1)C[C@H](n1cc(C(C)(C)C)nn1)C2
II: CCc1ncn([C@@H]2Cc3nn(-c4ccccc4OC)c(-c4ccc(C#N)cc4)c3C2)c1CC
q: Sort I and II by inhibition at 1 µM descending and give the first. // output: label of the selected item
a: II

I: COc1ccccc1-n1nc2c(c1-c1ccc(Cl)cc1)CC1(C2)OCCCO1
II: COc1ccccc1-n1nc2c(c1-c1ccc(C#N)cc1)CC(CC(C)C)C2 (centres unmarked)
q: Sort I and II by inhibition at 1 µM descending and give the first. // output: label of the selected item
a: I

* * *

- experimental.system: N-type calcium channel (Homo sapiens)
- assay.protocol: Automated Electrophysiology Assay (QPatch-HT whole-cell patch clamp; low- and high-frequency stimulation)
- Type: cell-based
- condition.summary: 1 μM; high-frequency stimulation (15th pulse); read-out: QPatch at High Frequency % Inhibition
endpoint: inhibition at 1 µM (%)

Consider the reported inhibition at 1 µM for these molecules:
[
  {
    "molecule": "COc1ccccc1-n1nc2c(c1-c1ccc(Cl)cc1)CC1(C2)O[C@H](C)C[C@@H](C)O1 (some centres unmarked)",
    "experimental.system": "N-type calcium channel (Homo sapiens)",
    "unit.text": "%",
    "observed.result": 83
  },
  {
    "molecule": "CC(C)S(=O)(=O)N(C)[C@@H]1Cc2nn(-c3cccc4c3OCC4)c(-c3ccc(Cl)cc3)c2C1",
    "experimental.system": "N-type calcium channel (Homo sapiens)",
    "unit.text": "%",
    "observed.result": 66
  },
  {
    "molecule": "COc1ccccc1-n1nc2c(c1-c1ccc(Cl)cc1)CC(CCOC(=O)N1CCOCC1)C2 (centres unmarked)",
    "experimental.system": "N-type calcium channel (Homo sapiens)",
    "unit.text": "%",
    "observed.result": 69
  },
  {
    "molecule": "COc1ccccc1-n1nc2c(c1-c1ccc(C#N)cc1)C[C@H](n1cc(C(C)(C)C)nn1)C2",
    "experimental.system": "N-type calcium channel (Homo sapiens)",
    "unit.text": "%",
    "observed.result": 57
  },
  {
    "molecule": "COc1ccccc1-n1nc2c(c1-c1ccc(OC(C)C)nc1)C[C@@H](N(C)S(=O)(=O)N(C)C)C2",
    "experimental.system": "N-type calcium channel (Homo sapiens)",
    "unit.text": "%",
    "observed.result": 83
  }
]

P: COc1ccccc1-n1nc2c(c1-c1ccc(Cl)cc1)CC(CCNS(C)(=O)=O)C2 (centres unmarked)
Q: COc1ccccc1-n1nc2c(c1-c1ccc(Cl)cc1)CC(CCOC(=O)N(C)C)C2 (centres unmarked)
q: Sort P and Q by inhibition at 1 µM descending and give the first. // output: label of the selected item
a: Q

* * *

- experimental.system: N-type calcium channel (α1B (Cav2.2), β3 and α2δ subunits) (Homo sapiens)
- assay.protocol: Functional Assay: Antagonism of N-Type Calcium Channel (FDSS calcium mobilization, KCl depolarization)
- Assay type: cell-based
endpoint: inhibition at 0.33 µM (%)
// units = %; emit number, no label

q: Quick one: inhibition at 0.33 µM for COc1ccccc1-n1nc2c(c1-c1ccc(Cl)cc1)C[C@H](OCC1CCCCC1)C2 ?
a: 76

* * *

- experimental.system: N-type calcium channel (Homo sapiens)
- assay.protocol: Automated Electrophysiology Assay (QPatch-HT whole-cell patch clamp; low- and high-frequency stimulation)
- Assay type: cell-based
- condition.summary: 1 μM; high-frequency stimulation (15th pulse); read-out: QPatch at High Frequency % Inhibition
endpoint: inhibition at 1 µM (%)

[
  {
    "compound": "COc1ccccc1-n1nc2c(c1-c1ccc(Cl)cc1)CC(c1cccnc1)C2 (stereo not shown)",
    "observed.result": 62
  },
  {
    "compound": "CCOc1ccccc1-n1nc2c(c1-c1ccc(Cl)cc1)CC(n1ccnn1)C2 (stereo not shown)",
    "observed.result": 87
  },
  {
    "compound": "CCc1ncn([C@@H]2Cc3nn(-c4ccccc4OC)c(-c4ccc(C#N)cc4)c3C2)c1CC",
    "observed.result": 66
  },
  {
    "compound": "CCOc1ccccc1-n1nc2c(c1-c1ccc(Cl)cc1)CC(n1ccnc1)C2 (stereo not shown)",
    "observed.result": 72
  }
]

* * *

- experimental.system: N-type calcium channel (α1B (Cav2.2), β3 and α2δ subunits) (Homo sapiens)
- assay.protocol: Functional Assay: Antagonism of N-Type Calcium Channel (FDSS calcium mobilization, KCl depolarization)
- Format: cell-based
- condition.summary: HEK cell line, 50 mM KCl depolarization, six-point concentration-response; read-out: FDSS IC50
endpoint: IC50 (nM)

Consider the reported IC50 for these compounds:
[
  {
    "compound": "COc1ccccc1-n1nc2c(c1-c1ccc(Cl)cc1)C[C@H](Oc1cccnc1)C2",
    "observed.result": 94
  },
  {
    "compound": "COc1ccccc1-n1nc2c(c1-c1ccc(Cl)cc1)CC(N1CCOCC1)C2 (centres unmarked)",
    "observed.result": 16
  },
  {
    "compound": "COc1ccccc1-n1nc2c(c1-c1ccc(C#N)cc1)C[C@H](n1cc(C(C)(C)C)nn1)C2",
    "observed.result": 50
  }
]

1: COc1ccccc1-n1nc2c(c1-c1ccc(Cl)cc1)CC1(C2)O[C@H]2CCC[C@H]2O1 (some centres unmarked) [Compound 114]
2: COc1ccccc1-n1nc2c(c1-c1ccc(Cl)cc1)CC1(C2)OCCCO1
3: CN(C)C(=O)OC1Cc2nn(-c3ccccc3OC(F)(F)F)c(-c3ccc(Cl)cc3)c2C1 (centres unmarked)
4: CCc1nnn([C@@H]2Cc3nn(-c4ccccc4OC)c(-c4ccc(C#N)cc4)c3C2)c1CC
5: COC(=O)c1cn([C@@H]2Cc3nn(-c4ccccc4OC)c(-c4ccc(C#N)cc4)c3C2)nn1
q: Hey, quick one: sort these by IC50, low to high? As an answer, provide the labels arranged in the order called for.
a: 1, 4, 2, 5, 3

* * *

- experimental.system: N-type calcium channel (α1B (Cav2.2), β3 and α2δ subunits) (Homo sapiens, UniProt Q00975)
- Sequence (Q00975 whole entry): as the sequence (Q00975 whole entry) above
- Sequence (P54284 whole entry partner): as the sequence (P54284 whole entry partner) above
- Sequence (P54289 25-946 partner limits assumed): as the sequence (P54289 25-946 partner limits assumed) above
- Sequence (P54289 947-1103 partner limits assumed): as the sequence (P54289 947-1103 partner limits assumed) above
- assay.protocol: Functional Assay: Antagonism of N-Type Calcium Channel (FDSS calcium mobilization, KCl depolarization)
- Assay type: cell-based
- condition.summary: 0.33 μM
endpoint: inhibition at 0.33 µM (%)

[
  {
    "molecule": "COc1ccccc1-n1nc2c(c1-c1ccc(Cl)cc1)C[C@H](OC(=O)C1CCOCC1)C2",
    "unit.text": "%",
    "inhibition at 0.33 µM": 82
  },
  {
    "molecule": "COc1ccccc1-n1nc2c(c1-c1ccc(C#N)cc1)CC1(C2)OCC(C)(C)CO1",
    "unit.text": "%",
    "inhibition at 0.33 µM": 89
  },
  {
    "molecule": "CCc1nc(C)c(C)n1[C@@H]1Cc2nn(-c3ccccc3OC)c(-c3ccc(C#N)cc3)c2C1",
    "unit.text": "%",
    "inhibition at 0.33 µM": 35
  },
  {
    "molecule": "COc1ccccc1-n1nc2c(c1-c1ccc(Cl)cc1)C[C@H](OC1CCCCO1)C2 (stereo partly shown)",
    "unit.text": "%",
    "inhibition at 0.33 µM": 92
  },
  {
    "molecule": "CCOc1ccccc1-n1nc2c(c1-c1ccc(Cl)cc1)CC(NS(=O)(=O)N(C)C)C2 (stereo not shown)",
    "unit.text": "%",
    "inhibition at 0.33 µM": 92
  },
  {
    "molecule": "CCOc1ccccc1-n1nc2c(c1-c1ccc(Cl)cc1)C[C@@H](n1ccnc1)C2",
    "unit.text": "%",
    "inhibition at 0.33 µM": 87
  },
  {
    "molecule": "COCc1cn([C@@H]2Cc3nn(-c4ccccc4OC)c(-c4ccc(C#N)cc4)c3C2)nn1",
    "unit.text": "%",
    "inhibition at 0.33 µM": 47
  },
  {
    "molecule": "COc1ccccc1-n1nc2c(c1-c1ccc(C#N)cc1)C[C@H](n1cc(C3CCCC3)nn1)C2",
    "unit.text": "%",
    "inhibition at 0.33 µM": 88
  },
  {
    "molecule": "COc1ccccc1-n1nc2c(c1-c1ccc(Cl)cc1)C[C@H](OC(C)C)C2",
    "unit.text": "%",
    "inhibition at 0.33 µM": 100
  },
  {
    "molecule": "COc1ccccc1-n1nc2c(c1-c1ccc(C#N)cc1)C[C@H](n1cc(CC(C)C)nn1)C2",
    "unit.text": "%",
    "inhibition at 0.33 µM": 97
  }
]

a: COc1ccccc1-n1nc2c(c1-c1ccc(Cl)cc1)CC(c1ccc(N3CCOCC3)nc1)C2 (stereo not shown)
b: COc1ccccc1-n1nc2c(c1-c1ccc(Cl)cc1)CC1(C2)O[C@@H](C)C[C@H](C)O1 (stereo partly shown)
q: Sort a and b by inhibition at 0.33 µM descending and give the first. // output: label of the selected item
a: b
(b: 98%, a: 42%)

// provenance: patent US8853418B2
